Some binders, each annotated with its measured TL1A Binding Level (Early).
Biological target: T1, human TL1A extracellular domain with N-terminal HIS and FLAG tag (human, UniProt O95150 72-251)
T1 construct: the whole entry is named; also called TNFSF15
T1 sequence: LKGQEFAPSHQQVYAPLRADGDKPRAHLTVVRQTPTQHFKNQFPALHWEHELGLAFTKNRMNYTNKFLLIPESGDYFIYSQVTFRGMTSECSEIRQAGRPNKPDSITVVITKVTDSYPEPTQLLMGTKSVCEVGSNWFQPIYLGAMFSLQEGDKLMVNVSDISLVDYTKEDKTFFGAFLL
Test: SPR Run 7, antibody on Protein A, TL1A 5 ug/mL, timepoint 44
quantity.kind: TL1A Binding Level (Early) (RU)

[
  {
    "binder": "320-493 (antibody, human IgG1, name in Kabat numbering, V domains shown, full-length human IgG1, lambda) VH: QVQLVQSGAEVKKPGASVKVSCKASGYTFTSYDINWVRQAPGQGLEWMGWDNPNSGNTGYAQKFQGRVTMTADRSTSTAYMELSSLRSEDTAVYYCAREVPETAAFEYWGQGTLVTVSS VL: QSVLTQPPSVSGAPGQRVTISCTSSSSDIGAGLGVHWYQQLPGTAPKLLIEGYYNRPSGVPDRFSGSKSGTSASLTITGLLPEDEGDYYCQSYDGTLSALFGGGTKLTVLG",
    "unit": "RU",
    "measured.number": 48
  },
  {
    "binder": "320-513 (antibody, human IgG1, name in Kabat numbering, V domains shown, full-length human IgG1, lambda) VH: QVQLVQSGAEVKKPGASVKVSCKASGYTFTSYDINWVRQAPGQGLEWMGWLNYNSGNTGYAQKFQGRVTMTADRSTSTAYMELSSLRSEDTAVYYCAREVPETAAFEYWGQGTLVTVSS VL: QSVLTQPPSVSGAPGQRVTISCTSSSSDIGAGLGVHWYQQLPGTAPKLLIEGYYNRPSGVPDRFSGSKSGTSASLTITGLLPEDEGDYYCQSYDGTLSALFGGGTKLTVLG",
    "unit": "RU",
    "measured.number": 99
  }
]

The origin of these recorded values is patent US20170081400A1.
